Biological target: T1, recombinant human TL1A (human, UniProt O95150 71-251)
T1 construct: The ELISA method says only 'recombinant TL1A' coated on plates; homotrimeric cytokine; also called TNFSF15; recombinant TL1A
T1 chain: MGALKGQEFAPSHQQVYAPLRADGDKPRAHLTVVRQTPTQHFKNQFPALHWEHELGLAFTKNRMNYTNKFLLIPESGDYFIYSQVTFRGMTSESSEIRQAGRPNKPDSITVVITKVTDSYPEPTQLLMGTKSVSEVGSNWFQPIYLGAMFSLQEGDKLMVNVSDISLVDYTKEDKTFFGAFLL
Test: competition ELISA on coated recombinant TL1A; competitor biotinylated TL1A-0002
In this section, each of the binders is paired with its reported Bioactivity relative to TL1A-0002.
Numbers only; they are read as fold.

Given the entry TL1A-0308 (antibody, human IgG1, kappa, V domains shown, human IgG1 effector-function-minimized / human kappa) VH: QVQLVQSGAEVKKPGASVKVSCKASGYDFTYYGIGWVRQAPGQGLEWMGWISTYNTNTHYAPSLQGRVTMTTDTSTSTAYMELRSLRSDDTAVYYCARESYYGSGAFRGGMDVWGQGTTVTVSS VL: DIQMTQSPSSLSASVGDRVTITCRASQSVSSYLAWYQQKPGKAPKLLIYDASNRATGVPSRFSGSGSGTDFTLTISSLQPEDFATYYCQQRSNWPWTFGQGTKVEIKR , report its measured Bioactivity relative to TL1A-0002.
2.8

Could you share which Bioactivity relative to TL1A-0002 value was measured for TL1A-0257 (antibody, human IgG1, kappa, V domains shown, human IgG1 effector-function-minimized / human kappa) VH: QVQLVQSGAEVKKPGASVKVSCKASGYDYTYYGISWVRQAPGQGLEWMGWISTYNDNTHYAPSLQGRVTMTTDTSTSTAYMELRSLRSDDTAVYYCARESYYGSGAHRGGMDVWGQGTTVTVSS VL: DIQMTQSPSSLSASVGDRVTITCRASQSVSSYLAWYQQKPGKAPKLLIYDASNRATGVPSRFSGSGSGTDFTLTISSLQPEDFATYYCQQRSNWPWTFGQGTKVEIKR ?
1.9

# get_value(readout='Bioactivity relative to TL1A-0002', item= TL1A-0274 (antibody, human IgG1, kappa, V domains shown, human IgG1 effector-function-minimized / human kappa) VH: QVQLVQSGAEVKKPGASVKVSCKASGYDFSYYGISWVRQAPGQGLEWMGWISTYNTGTHYAPSLQGRVTMTTDTSTSTAYMELRSLRSDDTAVYYCARESYYGSGAFRGGMDVWGQGTTVTVSS VL: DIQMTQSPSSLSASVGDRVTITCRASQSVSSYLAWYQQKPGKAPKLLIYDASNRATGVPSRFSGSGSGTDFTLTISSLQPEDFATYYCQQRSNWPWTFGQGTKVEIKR )
2

Would you kindly share the measured Bioactivity relative to TL1A-0002 for TL1A-0285 (antibody, human IgG1, kappa, V domains shown, human IgG1 effector-function-minimized / human kappa) VH: QVQLVQSGAEVKKPGASVKVSCKASGYDFTYYGVSWVRQAPGQGLEWMGWISTYNDNTHYAPSLQGRVTMTTDTSTSTAYMELRSLRSDDTAVYYCARESYYGSGAHRGGMDVWGQGTTVTVSS VL: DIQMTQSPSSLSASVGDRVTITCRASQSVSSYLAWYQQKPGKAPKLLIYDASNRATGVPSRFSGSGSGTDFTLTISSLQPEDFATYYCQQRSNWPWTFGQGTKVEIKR ?
1.7

Report Bioactivity relative to TL1A-0002 for TL1A-0309 (antibody, human IgG1, kappa, V domains shown, human IgG1 effector-function-minimized / human kappa) VH: QVQLVQSGAEVKKPGASVKVSCKASGYDFTYYGIGWVRQAPGQGLEWMGWISTYNTNTHYAPSLQGRVTMTTDTSTSTAYMELRSLRSDDTAVYYCARESYYGSGAHRGGMDVWGQGTTVTVSS VL: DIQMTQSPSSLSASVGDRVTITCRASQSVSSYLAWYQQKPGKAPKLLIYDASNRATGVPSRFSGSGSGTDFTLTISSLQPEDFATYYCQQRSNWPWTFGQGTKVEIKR please.
3.3
